The measured values listed here are drawn from PubChem BioAssay (NCI).

tested on: SF-295 CNS; experiment: NCI-60 one-dose screen, 48 h; conditions: 10 µM unless noted
This is part of a sample that, as a whole, favours compounds with a hit. Of some 83,000 tested, about 20% had one in any assay. The source made the active and inactive calls. Rule for the calls: active = growth percent below 10; inactive = the rest.
// allowed return values: 1 for active, -1 for inactive

Reference set (5 entries):
Cc1ccc(N(CSc2ccc(Cl)cc2)CSc2ccc(Cl)cc2)cc1 = -1
COc1cccc(C2CC(=O)Nc3cc4c(cc32)CCC4)c1OC (stereo not given) = -1
CCOC(=O)C1=C(C)N2C(=NC3=C(CCCC/C3=C\c3ccccc3)C2c2ccccc2)S1 (stereo not given) = -1
COc1ccc(/C=C(\C#N)c2ccc(OC)cc2)cc1 = -1
Cc1ccc(S(=O)(=O)N(c2ccc(Cl)cc2)c2ccc(Br)cc2C(=O)O)cc1 = -1

stdin: Outcome? CCCCCn1c(=N)n(CC(O)COc2cccc(C)c2)c2ccccc21 (stereo not given)
stdout: 1

stdin: Also, COC(=O)c1c2c(c(C)[n+]([O-])c1C)C(=O)C=C(NCc1ccc(F)cc1)C2=O please.
stdout: 1

stdin: Also, Cc1c(NCC(=O)Nc2nc3ccccc3[nH]2)c(=O)n(-c2ccccc2)n1C please.
stdout: -1

stdin: Also, CC(C)N1CCN(c2ccc(OC[C@H]3CO[C@](Cn4cncn4)(c4ccc(Cl)cc4Cl)O3)cc2)CC1 please.
stdout: -1

stdin: Also, O=C1C(N2CCOCC2)=Cc2cccc3cccc1c23 please.
stdout: -1

stdin: Also, O=C(Nc1ccc(Cl)c(Cl)c1)OCn1ncc2ccc([N+](=O)[O-])cc21 please.
stdout: -1

stdin: Also, COc1cc(CNCCN2C(=O)c3ccc4c5c(ccc(c35)C2=O)C(=O)N(CCNCc2cc(OC)c(OC)c(OC)c2)C4=O)cc(OC)c1OC please.
stdout: 1

stdin: Also, CC(=O)OCC1OC([S-])C(OC(C)=O)C(OC(C)=O)C1OC(C)=O.[Au+].c1ccc(CN2[CH-]N(Cc3ccccc3)C(c3ccccc3)=C2c2ccccc2)cc1 please.
stdout: 1

stdin: Also, O=S(=O)(Nc1ccccc1Cl)c1ccc(-c2cnc(C3CC3)o2)cc1 please.
stdout: -1

stdin: Also, CCOC(=O)n1cc(C2=C(c3cn(C)c4ccccc34)COC2=O)c2ccccc21 please.
stdout: 1

stdin: Also, Cc1cc(NS(=O)(=O)c2ccc(NC(=O)COc3ccc(-c4cc5ccccc5[nH]4)cc3)cc2)no1 please.
stdout: 1
